Reference source for all entries: patent US11447466B2

assayed_system: UniProt:Q9NYK1
experiment_description: TLR7 inhibition reporter assay (HEK-Blue SEAP reporter, gardiquimod stimulation)
reported_conditions: HEK-Blue cells overexpressing human TLR7, SEAP reporter, gardiquimod 7.5 μM, 22 hour incubation
pIC50: −log10 of the molar value.
experimental_readout: pIC50

Here is how some compounds turned out for pIC50.
{"compound": "CNC(=O)c1cccc(-c2cc(-c3[nH]c4ccc(C5CCNCC5)cc4c3C(C)C)cn(C)c2=O)c1", "pIC50": 7.33}
{"compound": "CC(C)c1c(-c2cc(-c3cccnc3)c(=O)n(C)c2)[nH]c2ccc(C3CCN(C(C)C)CC3)cc12", "pIC50": 7.96}
{"compound": "Cc1cc(-c2[nH]c3ccc(C4CCN(Cc5cnn(C(C)C)c5)CC4)cc3c2C(C)C)cn(C)c1=O", "pIC50": 8.42}
{"compound": "CC(C)c1c(-c2cc(-c3cccnc3)c(=O)n(C)c2)[nH]c2ccc(C3CCN(CCO)CC3)cc12", "pIC50": 8.34}
{"compound": "Cc1cc(-c2[nH]c3ccc(C4CCN(CC5=NN=CC5)CC4)cc3c2C(C)C)cn(C)c1=O", "pIC50": 8.37}

I. Cc1cc(-c2[nH]c3ccc(C4CCN(CC(O)C(C)(C)C)CC4)cc3c2C(C)C)cn(C)c1=O (stereo not shown)
II. Cc1nc(-c2[nH]c3ccc(C4CCN(CC(C)(C)O)CC4)cc3c2C(C)C)cn(C)c1=O
Please indicate which has the smaller reported pIC50: I , or II . # respond with the chosen item's label
II
(II: 7.45, I: 8.06)

a. CNCCN1CCC(c2ccc3[nH]c(-c4ccc(=O)n(C)c4)c(C(C)C)c3c2)CC1
b. CNC(=O)CN1CCC(c2ccc3[nH]c(-c4cc(C)c(=O)n(CCOC)c4)c(C(C)C)c3c2)CC1
Which is greater in pIC50, the first item a or the second item b ? Which one? Tell me its label.
b

* * *

assayed_system: human TLR7 (Homo sapiens, UniProt Q9NYK1)
Sequence (Q9NYK1 27-1049): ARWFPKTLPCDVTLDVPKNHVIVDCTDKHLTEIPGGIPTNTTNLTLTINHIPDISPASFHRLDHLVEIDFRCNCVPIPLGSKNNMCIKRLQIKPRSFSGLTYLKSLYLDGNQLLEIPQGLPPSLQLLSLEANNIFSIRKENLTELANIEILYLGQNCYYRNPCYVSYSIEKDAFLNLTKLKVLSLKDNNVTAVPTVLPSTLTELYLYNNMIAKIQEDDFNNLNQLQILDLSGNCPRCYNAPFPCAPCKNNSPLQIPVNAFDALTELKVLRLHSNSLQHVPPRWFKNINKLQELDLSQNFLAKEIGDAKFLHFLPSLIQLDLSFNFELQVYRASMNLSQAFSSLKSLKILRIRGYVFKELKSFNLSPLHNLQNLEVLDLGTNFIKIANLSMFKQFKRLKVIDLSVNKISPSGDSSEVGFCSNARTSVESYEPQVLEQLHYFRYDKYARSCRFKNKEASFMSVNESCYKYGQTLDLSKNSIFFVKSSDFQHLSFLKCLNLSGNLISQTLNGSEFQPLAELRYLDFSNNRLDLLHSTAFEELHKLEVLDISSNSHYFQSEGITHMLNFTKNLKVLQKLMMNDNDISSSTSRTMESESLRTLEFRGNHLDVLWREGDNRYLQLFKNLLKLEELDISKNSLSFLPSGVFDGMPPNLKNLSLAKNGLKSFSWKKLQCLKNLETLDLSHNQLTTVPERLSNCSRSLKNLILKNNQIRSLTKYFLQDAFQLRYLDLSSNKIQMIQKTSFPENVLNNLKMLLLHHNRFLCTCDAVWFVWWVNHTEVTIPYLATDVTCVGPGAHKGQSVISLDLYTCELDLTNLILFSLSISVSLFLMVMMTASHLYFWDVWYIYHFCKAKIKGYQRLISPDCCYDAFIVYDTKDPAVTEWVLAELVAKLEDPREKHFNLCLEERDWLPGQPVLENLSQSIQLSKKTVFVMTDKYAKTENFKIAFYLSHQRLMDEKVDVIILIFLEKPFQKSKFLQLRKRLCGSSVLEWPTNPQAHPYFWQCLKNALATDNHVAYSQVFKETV
experiment_description: TLR7 inhibition reporter assay (HEK-Blue SEAP reporter, gardiquimod stimulation)
reported_conditions: HEK-Blue cells overexpressing human TLR7, SEAP reporter, gardiquimod 7.5 μM, 22 hour incubation
pIC50: −log10 of the molar value.
experimental_readout: pIC50

Below, 4 compounds whose answers are already recorded.
{"compound": "CCn1nc(-c2[nH]c3ccc(C4CCNCC4)cc3c2C(C)C)cc(C)c1=O [Example 18]", "pIC50": 7.74}
{"compound": "COc1cc(-c2[nH]c3ccc(C4CCN(CC(C)(C)O)CC4)cc3c2C(C)C)c(C)n(C)c1=O [Example 318]", "pIC50": 6.44}
{"compound": "Cc1cc(-c2[nH]c3ccc(C4CCN(C5CCOCC5)CC4)cc3c2C(C)C)nn(C)c1=O [Example 194]", "pIC50": 7.99}
{"compound": "Cc1cc(-c2[nH]c3ccc(C4CCN(C(=O)C(C)(C)CO)CC4)cc3c2C(C)C)cn(C)c1=O [Example 304]", "pIC50": 8.11}

I. CCn1cc(-c2[nH]c3ccc(C4CCN(C(C)C)CC4)cc3c2C(C)C)c(C)c(C)c1=O [Example 213]
II. Cc1c(-c2[nH]c3ccc(C4CCN(C(C)(C)C(N)=O)CC4)cc3c2C(C)C)cn(C)c(=O)c1Cl [Example 154]
Of I and II , whose reported pIC50 is numerically smaller? Give the chosen item's label as your response.
I
(I: 7.81, II: 8.34)

* * *

assayed_system: human TLR7 (Homo sapiens)
experiment_description: TLR7 inhibition reporter assay (HEK-Blue SEAP reporter, gardiquimod stimulation)
reported_conditions: HEK-Blue cells overexpressing human TLR7, SEAP reporter, gardiquimod 7.5 μM, 22 hour incubation
experimental_readout: IC50 (nM)

{"structure": "Cc1cc(-c2[nH]c3ccc(C4CCNCC4)cc3c2C(C)C)cn(CC(F)F)c1=O", "units_text": "nM", "observed": 5.2}
{"structure": "CCCN1CCC(c2ccc3[nH]c(-c4cc(-c5cccnc5)c(=O)n(C)c4)c(C(C)C)c3c2)CC1", "units_text": "nM", "observed": 7.3}
{"structure": "CC(=O)N1CC(N2CCC(c3ccc4[nH]c(-c5cn(C)c(=O)c(Cl)c5C)c(C(C)C)c4c3)CC2)C1", "units_text": "nM", "observed": 15.7}
{"structure": "CC(C)c1cc(-c2[nH]c3ccc(C4CCNCC4)cc3c2C(C)C)cn(C)c1=O", "units_text": "nM", "observed": 12.6}
{"structure": "Cc1cc(-c2[nH]c3ccc(C4CCN(CC(=O)N5CCC(=O)N5)CC4)cc3c2C(C)C)cn(C)c1=O", "units_text": "nM", "observed": 40.7}
{"structure": "Cc1c(-c2[nH]c3ccc(C4CCN(C5CCCC5)CC4)cc3c2C(C)C)cn(C)c(=O)c1Cl", "units_text": "nM", "observed": 5.2}
{"structure": "CC(C)c1c(-c2cc(C(=O)N3CCCC3)c(=O)n(C)c2)[nH]c2ccc(C3CCNCC3)cc12", "units_text": "nM", "observed": 333}
{"structure": "Cc1cc(-c2[nH]c3ccc(C4CCN(CC(=O)N5CC[C@@H](O)C5)CC4)cc3c2C(C)C)cn(C)c1=O", "units_text": "nM", "observed": 7.4}

I. CC(C)c1c(-c2cc(-c3cncnc3)c(=O)n(C)c2)[nH]c2ccc(C3CCN(CCCC(F)(F)F)CC3)cc12
II. Cc1nc(-c2[nH]c3ccc(C4CCN(C5COC5)CC4)cc3c2C(C)C)cn(C)c1=O
Rank I against II by their IC50 values and give the higher one. Label of pick, please.
II
(II: 112 nM, I: 13.1 nM)

I. CC(C)c1c(-c2cc(-c3ccc(F)nc3)c(=O)n(C)c2)[nH]c2ccc(C3CCN(C(C)C)CC3)cc12
II. CC(C)c1c(-c2cc(CO)c(=O)n(C)c2)[nH]c2ccc(C3CCNCC3)cc12
III. Cc1cc(-c2[nH]c3ccc(C4CCN(Cc5ncn(C)n5)CC4)cc3c2C(C)C)cn(C)c1=O
IV. Cc1cc(-c2[nH]c3ccc(C4CCN(Cc5cc(Cl)ccc5F)CC4)cc3c2C(C)C)cn(C)c1=O
Order the 4 compounds from highest to lowest IC50. Please list the labels according to the requested order.
IV, III, I, II

* * *

assayed_system: human TLR7 (Homo sapiens)
experiment_description: TLR7 inhibition reporter assay (HEK-Blue SEAP reporter, gardiquimod stimulation)
reported_conditions: HEK-Blue cells overexpressing human TLR7, SEAP reporter, gardiquimod 7.5 μM, 22 hour incubation
experimental_readout: IC50 (nM)

// solved cases for IC50 follow
{"compound": "Cc1cc(-c2[nH]c3ccc(C4CCN(CC5CC5)CC4)cc3c2C(C)C)cn(C)c1=O", "IC50 [nM]": 10}
{"compound": "CC(C)c1c(-c2cc(-c3cncnc3)c(=O)n(C)c2)[nH]c2ccc(C3CCN(CC4CCOC4)CC3)cc12 (stereo not shown)", "IC50 [nM]": 15.6}

I. Cc1c(-c2[nH]c3ccc(C4CCN(CC(C)(C)O)CC4)cc3c2C(C)C)cn(C)c(=O)c1Cl
II. CCCN1CCC(c2ccc3[nH]c(-c4cc(-c5ccc(NC(C)=O)nc5)c(=O)n(C)c4)c(C(C)C)c3c2)CC1
Which of the two items, I and II , has the greater recorded IC50? API: response body contains the label of the selected item.
I
(I: 13.7 nM, II: 2.4 nM)

* * *

assayed_system: UniProt Q9NR97
Sequence (Q9NR97 27-1041): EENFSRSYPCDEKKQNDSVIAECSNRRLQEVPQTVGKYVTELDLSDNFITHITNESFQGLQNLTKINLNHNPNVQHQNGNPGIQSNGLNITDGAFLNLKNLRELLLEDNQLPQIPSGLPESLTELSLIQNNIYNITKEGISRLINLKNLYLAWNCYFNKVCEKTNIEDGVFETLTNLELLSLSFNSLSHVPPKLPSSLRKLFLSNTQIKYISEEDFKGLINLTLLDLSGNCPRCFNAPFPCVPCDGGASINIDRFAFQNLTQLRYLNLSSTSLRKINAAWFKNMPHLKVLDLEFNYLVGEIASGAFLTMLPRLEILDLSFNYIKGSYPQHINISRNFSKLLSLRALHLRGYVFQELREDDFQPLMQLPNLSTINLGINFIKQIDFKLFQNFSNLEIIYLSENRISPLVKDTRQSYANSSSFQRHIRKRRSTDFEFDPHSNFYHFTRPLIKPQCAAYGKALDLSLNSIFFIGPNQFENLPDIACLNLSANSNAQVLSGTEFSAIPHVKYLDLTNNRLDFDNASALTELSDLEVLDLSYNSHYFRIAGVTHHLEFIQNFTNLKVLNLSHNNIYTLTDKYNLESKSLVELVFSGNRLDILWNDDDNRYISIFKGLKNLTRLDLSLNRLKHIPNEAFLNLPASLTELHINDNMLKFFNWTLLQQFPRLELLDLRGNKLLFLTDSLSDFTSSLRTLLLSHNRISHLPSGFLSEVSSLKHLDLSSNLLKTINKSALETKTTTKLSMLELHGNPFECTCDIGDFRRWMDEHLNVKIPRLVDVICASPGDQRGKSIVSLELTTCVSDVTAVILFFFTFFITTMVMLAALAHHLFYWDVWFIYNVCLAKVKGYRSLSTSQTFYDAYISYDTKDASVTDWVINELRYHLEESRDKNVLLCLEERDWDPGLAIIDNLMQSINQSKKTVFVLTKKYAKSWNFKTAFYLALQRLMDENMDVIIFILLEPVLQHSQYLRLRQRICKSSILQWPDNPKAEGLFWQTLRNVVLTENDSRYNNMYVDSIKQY
experiment_description: TLR8 inhibition reporter assay (HEK-Blue SEAP reporter, R848 stimulation)
reported_conditions: HEK-Blue cells overexpressing human TLR8, SEAP reporter, R848 15.9 μM, 22 hour incubation
experimental_readout: IC50 (nM)

{"structure": "Cc1cc(-c2[nH]c3ccc(C4CCNCC4)cc3c2C(C)C)cn(CCCO)c1=O", "units_text": "nM", "IC50": 30.3}
{"structure": "Cc1c(-c2[nH]c3ccc(C4CCN(CC(C)(C)O)CC4)cc3c2C(C)C)cn(C)c(=O)c1C", "units_text": "nM", "IC50": 1.8}
{"structure": "CCCn1cc(CN2CCC(c3ccc4[nH]c(-c5cc(C)c(=O)n(C)c5)c(C(C)C)c4c3)CC2)cn1", "units_text": "nM", "IC50": 4.3}
{"structure": "Cc1c(-c2[nH]c3ccc(C4CCN(CC5CCOCC5)CC4)cc3c2C(C)C)cn(C)c(=O)c1Cl", "units_text": "nM", "IC50": 4.9}
{"structure": "Cc1nc(-c2[nH]c3ccc(C4CCN(CC(C)(C)O)CC4)cc3c2C(C)C)cn(C)c1=O", "units_text": "nM", "IC50": 22.2}
{"structure": "Cc1cc(-c2[nH]c3ccc(C4CCN(C(=O)CN(C)C)CC4)cc3c2C(C)C)cn(C)c1=O", "units_text": "nM", "IC50": 8.3}

a. CCCN1CCC(c2ccc3[nH]c(-c4cc(C)c(=O)n(C)c4)c(C(C)C)c3c2)CC1
b. COCCN1CCC(c2ccc3[nH]c(-c4cc(-c5cnn(C)c5)c(=O)n(C)c4)c(C(C)C)c3c2)CC1
Rank a against b by their IC50 values and give the higher one. Returns: label corresponding to the selected item.
a

A. CNC(=O)CN1CCC(c2ccc3[nH]c(-c4cc(C)c(=O)n(C)c4C)c(C(C)C)c3c2)CC1
B. Cc1cc(-c2[nH]c3ccc(C4CCN(CCCC(F)(F)F)CC4)cc3c2C(C)C)cn(CC(C)C)c1=O
C. CCCN1CCC(c2ccc3[nH]c(-c4cc(-c5ccncc5)c(=O)n(C)c4)c(C(C)C)c3c2)CC1
Arrange these 3 compounds in increasing order of IC50. Form entry: ranked labels (order as requested).
C, A, B
(C: 1.2 nM, A: 4.2 nM, B: 163 nM)
